# measuredOn: UniProtKB P28335
# Sequence (P28335 whole entry): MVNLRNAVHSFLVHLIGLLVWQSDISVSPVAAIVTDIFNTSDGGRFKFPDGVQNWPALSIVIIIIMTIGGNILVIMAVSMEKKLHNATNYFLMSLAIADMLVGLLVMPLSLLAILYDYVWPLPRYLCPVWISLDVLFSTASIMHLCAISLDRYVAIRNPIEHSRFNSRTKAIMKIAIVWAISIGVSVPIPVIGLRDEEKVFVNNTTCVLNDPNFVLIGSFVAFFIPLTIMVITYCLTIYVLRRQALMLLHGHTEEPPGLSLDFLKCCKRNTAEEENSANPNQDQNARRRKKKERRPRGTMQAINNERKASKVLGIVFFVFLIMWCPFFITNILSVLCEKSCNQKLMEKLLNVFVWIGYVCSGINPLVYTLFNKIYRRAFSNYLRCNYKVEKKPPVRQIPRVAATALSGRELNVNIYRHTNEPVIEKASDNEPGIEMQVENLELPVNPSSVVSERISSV
Just a reminder that ties go to Not satisfied: only Ki strictly below 3 nM counts as Satisfied.

Use the examples below as a reference point.
>>> classname("O=C1Nc2cc(Cl)c(Cl)cc2N2CCNC[C@H]12")
"Not satisfied"
>>> classname("Clc1cccc(COc2cncc(N3CCNCC3)n2)c1")
"Satisfied"
>>> classname("C[C@@H]1CN(c2ccc(C(F)(F)F)c3ccoc23)CCN1")
"Satisfied"

Input: Could you please tell me whether Ki recorded for `C[C@@H](N)Cn1ccc2cc(F)c(Cl)cc21` is less than 3 nM?
Output: Satisfied

Input: Could you please tell me whether Ki recorded for `Fc1cccc(F)c1-c1cc2c3c(c1)[C@H]1CNCC[C@H]1N3CCCS2` is less than 3 nM?
Output: Not satisfied

Input: Could you please tell me whether Ki recorded for `CCc1cc2c(ccc3cnn(C[C@@H](C)N)c32)o1` is less than 3 nM?
Output: Satisfied

Input: Could you please tell me whether Ki recorded for `Clc1ccc(Cl)c(-c2ccnc(N3C[C@@H]4CCN[C@@H]4C3)n2)c1` is less than 3 nM?
Output: Not satisfied

Input: Could you please tell me whether Ki recorded for `C[C@@H]1CNC[C@H]2Cc3ccc(COCC4CC4)nc3N21` is less than 3 nM?
Output: Not satisfied
